Where a SMILES comes first, the peptide text is derived from it.
Values of IC50 reported for HLA A*0301 (Homo sapiens, UniProt P04439) appear below.

| MOLECULE | RESULT |
| --- | --- |
| CC(C)[C@H](NC(=O)[C@H](CCC(=O)O)NC(=O)[C@H](Cc1ccccc1)NC(=O)[C@@H](NC(=O)[C@@H](N)CC(=O)O)[C@@H](C)O)C(=O)N[C@@H](Cc1ccc(O)cc1)C(=O)N[C@@H](CO)C(=O)N[C@@H](CCC(=O)O)C(=O)N[C@@H](Cc1ccc(O)cc1)C(=O)O (H-DTFEVYSEY-OH; N-terminus assumed) | > 1000 µM |
| CC(C)C[C@H](NC(=O)[C@H](CC(N)=O)NC(=O)[C@H](CC(C)C)NC(=O)[C@@H](N)CC(N)=O)C(=O)N[C@@H](CS)C(=O)NCC(=O)N[C@@H](CCCCN)C(=O)N[C@@H](Cc1ccc(O)cc1)C(=O)N[C@H](C(=O)N[C@@H](CCCCN)C(=O)O)[C@@H](C)O (H-NLNLCGKYTK-OH; N-terminus assumed) | > 1000 µM |

Problem: Complete the entry with IC50 for CC[C@H](C)[C@H](NC(=O)[C@@H](N)CO)C(=O)N[C@@H](C)C(=O)N[C@@H](CO)C(=O)N[C@@H](CCCCN)C(=O)N[C@@H](CC(N)=O)C(=O)N[C@@H](CC(C)C)C(=O)N[C@@H](CCSC)C(=O)N[C@@H](Cc1c[nH]c2ccccc12)C(=O)N[C@H](C(=O)O)C(C)C (H-SIASKNLMWV-OH)
Solution: > 1000 µM
